- Read-out: sulfotransferase 2A1 (SULT2A1), SULT2A1 (gene 6822)
- assay_method_text: LTEA_HepaRG_SULT2A1: Life Technologies and Expression Analysis (LTEA) Assay for sulfotransferase 2A1 (SULT2A1) using HepaRG (AID 2283531)
- condition_set: mRNA level, 48 h; actives raise or lower the signal
Active and inactive are the calls of the source. Rule for the calls: active = hit-call score of the fitted dose curve at least 0.9, where 1 is the maximum; inactive = score below 0.9.
Assign a class; possible classes are yes (1) for active, no (0) for inactive

Previously resolved entries follow.
>  <smiles_text>
C[C@]12C=CC(=O)C=C1CC[C@@H]1[C@@H]2C(=O)C[C@@]2(C)[C@H]1CC[C@]2(O)C(=O)CO

>  <assigned_class>
no (0)

$$$$
>  <smiles_text>
CCOc1ccc2c(c1)C(C)=CC(C)(C)N2

>  <assigned_class>
no (0)

$$$$

**Q:** What classification did "Cc1ccc(C)c(C)c1" end up with in this test?
**A:** no (0)

**Q:** Dear all, I need the recorded test outcome for "Cc1cccc([N+](=O)[O-])c1C" , thank you.
**A:** no (0)

**Q:** Record lookup: outcome of this test for "Cc1nc(C)nc(N2C[C@@H](C)N(c3ccnc([C@@H](C)O)n3)[C@@H](C)C2)n1" ?
**A:** no (0)

**Q:** Give the logged outcome of this assay for the following compound: "Oc1ccc2ccccc2c1N=Nc1ccccc1"
**A:** yes (1)

**Q:** Hi, sorry to bother you, what did the test record for "COc1ccc(C)cc1N" ?
**A:** no (0)

Data origin, for the record: PubChem BioAssay (EPA / NIEHS)
